Collected hemolysis at 1 h, 200 µM values appear next to each entry.
- ASSAY_OVERVIEW: Hemolytic activity in sheep RBC assessed as hemolysis at 200 uM measured after 1 hr by UV spectrometer analysis
- Type: ADME, cell-based, Ovis aries, Erythrocyte
- STATED_CONDITIONS: sheep red blood cells (erythrocytes), read-out: Activity
Note: unit % is implicit; provide only the numeric part.

{"columns": ["COMPOUND_SMILES", "hemolysis at 1 h, 200 µM (%)"],
 "data": [
  ["Nc1nccc(-c2c[nH]c3cc(Br)ccc23)n1", 8]
]}

Lab note: Brc1ccc2[nH]cc(-c3ccnc(NCc4ccccc4)n3)c2c1 gave hemolysis at 1 h, 200 µM of 9

Lab note: Nc1nc(-c2c[nH]c3cc(Br)ccc23)c[nH]1 gave hemolysis at 1 h, 200 µM of 7

Lab note: CCCCn1cc(-c2ccnc(N)n2)c2ccc(Br)cc21 gave hemolysis at 1 h, 200 µM of 56

* * *

- Test system: Mycolicibacterium smegmatis
- ASSAY_OVERVIEW: Potentiation of Cefoxitin-induced antibacterial activity against Mycobacterium smegmatis mc2 155 ATCC 700084 assessed as Cefoxitin MIC at 60 uM incubated for 48 hrs by alamarblue dye based broth microdilution method (reference value: 16 ug/ml)
- Format: functional
Collected MIC values appear next to each entry.
Note: unit µg/mL is implicit; provide only the numeric part.

Example entries begin here.
{"columns": ["COMPOUND_SMILES", "MIC / µg/mL"],
 "data": [
  ["CN(C)c1nccc(-c2c[nH]c3ccc(Br)cc23)n1", 16],
  ["CCNc1nccc(-c2c[nH]c3ccc(Br)cc23)n1", 16],
  ["Brc1ccc2[nH]cc(-c3ccnc(NCc4ccccc4)n3)c2c1", 16]
]}

Lab note: Nc1nccc(-c2c[nH]c3ccc(I)cc23)n1 gave MIC of 16

Lab note: Cn1cc(-c2ccnc(N)n2)c2cc(Br)ccc21 gave MIC of 8

Lab note: Nc1nccc(-c2c[nH]c3cc(I)ccc23)n1 gave MIC of 16

Lab note: CNc1nccc(-c2c[nH]c3ccc(Br)cc23)n1 gave MIC of 16

* * *

Collected fold change (FC) values appear next to each entry.
- System: Mycolicibacterium smegmatis
- ASSAY_OVERVIEW: Potentiation of Ampicillin-induced antibacterial activity against Mycobacterium smegmatis mc2 155 ATCC 700084 assessed as fold reduction in Ampicillin MIC at 60 uM incubated for 48 hrs by alamarblue dye based broth microdilution method
- Format: functional
// return a plain number; no unit text

Example entries begin here.
{"columns": ["COMPOUND_SMILES", "fold change (FC)"],
 "data": [
  ["Brc1ccc2[nH]cc(-c3ccnc(NCc4ccccc4)n3)c2c1", 2],
  ["CCNc1nccc(-c2c[nH]c3ccc(Br)cc23)n1", 2],
  ["CN(C)c1nccc(-c2c[nH]c3ccc(Br)cc23)n1", 2],
  ["Cn1cc(-c2ccnc(N)n2)c2cc(Br)ccc21", 4],
  ["CNc1nccc(-c2c[nH]c3ccc(Br)cc23)n1", 2],
  ["Nc1nccc(-c2c[nH]c3cc(I)ccc23)n1", 0],
  ["Nc1nccc(-c2c[nH]c3ccc(I)cc23)n1", 0]
]}

# ---- query compound ----
Lab note: Nc1nccc(-c2c[nH]c3cc(Br)ccc23)n1 gave fold change (FC) of 0
